# Test target: Carboxypeptidase A1 (Homo sapiens) (UniProt P15085)
# Sequence (whole entry): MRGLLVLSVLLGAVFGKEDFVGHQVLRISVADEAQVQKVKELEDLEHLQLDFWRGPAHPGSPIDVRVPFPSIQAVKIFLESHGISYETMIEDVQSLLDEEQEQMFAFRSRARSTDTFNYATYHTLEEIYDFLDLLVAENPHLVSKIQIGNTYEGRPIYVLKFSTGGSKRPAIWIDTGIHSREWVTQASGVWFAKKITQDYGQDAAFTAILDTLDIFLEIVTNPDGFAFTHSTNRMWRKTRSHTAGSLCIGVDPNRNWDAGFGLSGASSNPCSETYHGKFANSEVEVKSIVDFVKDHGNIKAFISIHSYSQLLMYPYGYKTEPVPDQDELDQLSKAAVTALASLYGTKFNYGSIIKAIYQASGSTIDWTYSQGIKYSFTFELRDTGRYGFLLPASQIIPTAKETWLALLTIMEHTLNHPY
# Experiment description: Inhibition of carboxypeptidase A (unknown origin)
# Condition info: concentration not given here
We begin with a simple list: items and their reported inhibition.

{"columns": ["Compound", "inhibition (%)"],
 "data": [
  ["O=C[C@H](C[C@@H]1CCNC1=O)NC(=O)[C@H](CC1CCCCC1)NC(=O)OCc1cccc(Br)c1", 11.6],
  ["O=C[C@H](C[C@@H]1CCNC1=O)NC(=O)[C@H](CC1CCCCC1)NC(=O)OCc1cccc(Cl)c1", 12],
  ["CCOP(=O)(OCC)C(O)[C@H](C[C@@H]1CCNC1=O)NC(=O)[C@H](CC1CCCCC1)NC(=O)OCc1cccc(Cl)c1 (some centres undefined)", 14.3],
  ["CCOP(=O)(OCC)C(O)[C@H](C[C@@H]1CCNC1=O)NC(=O)[C@H](CC1CCCCC1)NC(=O)OCc1cccc(Br)c1 (some centres undefined)", 0]
]}
